For each entry below, report its IC50 value.
# subject-of-test: Polyunsaturated fatty acid lipoxygenase ALOX15 (Oryctolagus cuniculus, UniProt P12530)
# Sequence (P12530 whole entry): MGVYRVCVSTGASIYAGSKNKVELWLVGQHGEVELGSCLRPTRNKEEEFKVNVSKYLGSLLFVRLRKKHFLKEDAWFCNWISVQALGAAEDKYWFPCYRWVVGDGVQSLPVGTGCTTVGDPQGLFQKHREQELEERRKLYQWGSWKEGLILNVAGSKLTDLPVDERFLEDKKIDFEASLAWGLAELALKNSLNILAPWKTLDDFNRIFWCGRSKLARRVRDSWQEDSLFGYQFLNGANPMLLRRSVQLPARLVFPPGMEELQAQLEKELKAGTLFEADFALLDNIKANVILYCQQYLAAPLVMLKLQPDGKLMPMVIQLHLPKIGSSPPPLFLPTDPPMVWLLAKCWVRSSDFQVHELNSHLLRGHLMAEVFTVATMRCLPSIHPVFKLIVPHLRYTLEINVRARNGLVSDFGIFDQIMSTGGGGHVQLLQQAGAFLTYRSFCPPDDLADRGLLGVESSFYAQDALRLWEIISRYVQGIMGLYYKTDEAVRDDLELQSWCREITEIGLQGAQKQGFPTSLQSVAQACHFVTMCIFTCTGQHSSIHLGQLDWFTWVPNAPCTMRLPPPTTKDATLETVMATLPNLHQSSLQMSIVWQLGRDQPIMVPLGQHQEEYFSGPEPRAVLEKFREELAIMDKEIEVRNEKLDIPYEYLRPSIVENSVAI
# measurement-description: Inhibitory concentration against rabbit reticulocyte 15-lipoxygenase with substrate arachidonic acid
Report as a plain number; the unit nM is understood.

Task: # get_value(readout='IC50', item= `O=C(Nc1ccccc1)c1ccc(S(=O)(=O)NCCc2c(-c3cc4ccccc4o3)[nH]c3ccccc23)cc1` )
Output: 51

Task: # get_value(readout='IC50', item= `CCCCCc1ccc(S(=O)(=O)NCCc2c[nH]c3ccc(C)cc23)cc1` )
Output: 3900

Task: # get_value(readout='IC50', item= `O=S(=O)(NCCc1c(-c2cc3ccccc3o2)[nH]c2ccccc12)c1ccc(-c2ccncc2)cc1` )
Output: 179

Task: # get_value(readout='IC50', item= `CCCc1ccc(S(=O)(=O)NCCc2c[nH]c3ccccc23)cc1` )
Output: 3200

Task: # get_value(readout='IC50', item= `CCCCCc1ccc(S(=O)(=O)NCCc2c(-c3cccc(C)c3)[nH]c3ccccc23)cc1` )
Output: 58

Task: # get_value(readout='IC50', item= `CCCCCc1ccc(S(=O)(=O)NCCc2c(-c3ccc(OC)cc3)[nH]c3ccccc23)cc1` )
Output: 164

Task: # get_value(readout='IC50', item= `CCCCNC(=O)c1ccc(S(=O)(=O)NCCc2c(-c3cc4ccccc4o3)[nH]c3ccccc23)cc1` )
Output: 112

Task: # get_value(readout='IC50', item= `COc1ccc(-c2[nH]c3ccccc3c2CCNS(=O)(=O)c2ccc(-c3ccccc3)cc2)cc1` )
Output: 247
